- Protocol summary: Inhibition of Clostridium perfringens neuraminidase by Lineweaver-Burke plot
pKi: −log10 of the molar value.
So basically: pKi at 5 or higher? That is condition met. Lower than 5? That is condition not met.

>>> class_assignment("OC[C@H]1O[C@@H](Oc2ccc3c(c2)OC[C@H]2c4cc5c(cc4O[C@@H]32)OCO5)[C@H](O)[C@@H](O)[C@@H]1O")
"condition not met"
>>> class_assignment("C=C(C)[C@H](CCC(C)(C)O)Cc1c(O)cc(O)c2c1O[C@H](c1ccc(O)cc1O)CC2=O")
"condition not met"
>>> class_assignment("C=C(C)[C@H](CCC(C)(C)O)Cc1c(O)cc(OC)c2c1O[C@H](c1ccc(O)cc1O)CC2=O")
"condition not met"
>>> class_assignment("C=C(C)C(CC=C(C)C)Cc1c(O)cc(OC)c2c1O[C@H](c1ccc(O)cc1O)CC2=O (some centres undefined)")
"condition not met"
>>> class_assignment("C=C(C)[C@H](CC=C(C)C)Cc1c(O)cc(O)c2c1O[C@H](c1ccccc1O)CC2=O")
"condition not met"
>>> class_assignment("C=C(C)[C@H](CC=C(C)C)Cc1c(O)cc(O)c2c1O[C@H](c1ccc(O)cc1O)CC2=O")
"condition not met"

Q: Is pKi for `Oc1ccc2c(c1)OC[C@H]1c3cc4c(cc3O[C@@H]21)OCO4` at or above 5?
Ans: condition met

Q: Is pKi for `COc1ccc2c(c1)OC[C@H]1c3cc4c(cc3O[C@@H]21)OCO4` at or above 5?
Ans: condition met

###

Recorded log10 of IC50, one value per entry.
- Protocol summary: Inhibition of Clostridium perfringens neuraminidase
In our notation, the value equals log10 of IC50 in µM.

// below: answered compounds
>>> recorded_number("O=c1c2cc(O)c(O)cc2oc2cc(O)c([C@@H]3O[C@H](CO)[C@@H](O)[C@H](O)[C@H]3O)c(O)c12")
1.21
>>> recorded_number("C=C(C)[C@H](CC=C(C)C)Cc1c(O)cc(O)c2c1O[C@H](c1ccccc1O)CC2=O")
1.17
>>> recorded_number("C=C(C)C(CC=C(C)C)Cc1c(O)cc(OC)c2c1O[C@H](c1ccc(O)cc1O)CC2=O (stereo not given in full)")
1.18
>>> recorded_number("C=C(C)[C@H](CCC(C)(C)O)Cc1c(O)cc(OC)c2c1O[C@H](c1ccc(O)cc1O)CC2=O")
1.23
>>> recorded_number("OC[C@H]1O[C@@H](Oc2ccc3c(c2)OC[C@H]2c4cc5c(cc4O[C@@H]32)OCO5)[C@H](O)[C@@H](O)[C@@H]1O")
2.37
>>> recorded_number("C=C(C)[C@H](CCC(C)(C)O)Cc1c(O)cc(O)c2c1O[C@H](c1ccc(O)cc1O)CC2=O")
1.26
>>> recorded_number("Oc1ccc2c(c1)OC[C@H]1c3cc4c(cc3O[C@@H]21)OCO4")
0.51
>>> recorded_number("COc1ccc2c(c1)OC[C@H]1c3cc4c(cc3O[C@@H]21)OCO4")
0.15
>>> recorded_number("C=C(C)[C@H](CC=C(C)C)Cc1c(O)cc(O)c2c1O[C@H](c1ccc(O)cc1O)CC2=O")
1.13

Next up:
Q: For `C=C(C)[C@H](CCC(C)(C)O)Cc1c(O)cc(O)c2c1O[C@H](c1ccccc1O)CC2=O` , what is its reported log10 of IC50?
Ans: 1.08
